Listed sequences paired with reported collision cross section
Assay: collision cross section of modified peptide (TIMS, N2, iRT-aligned); higher = larger / more extended gas-phase ion
Details: charge state: 3; modification: Acetyl (K)
parameter: collision cross section (Å²)

chain_sequence="VFIGNLNTLVVKKK [_VFIGNLNTLVVK(Acetyl (K))KK_]" parameter="collision cross section" endpoint_unit=Å² observed=507.56
chain_sequence="DLSTVEALQNLKNLK [_DLSTVEALQNLK(Acetyl (K))NLK_]" parameter="collision cross section" endpoint_unit=Å² observed=544.02
chain_sequence="SLGEPAAGEGSAKR [_SLGEPAAGEGSAK(Acetyl (K))R_]" parameter="collision cross section" endpoint_unit=Å² observed=484.93
chain_sequence="VLTANSNPSSPSAAKR [_VLTANSNPSSPSAAK(Acetyl (K))R_]" parameter="collision cross section" endpoint_unit=Å² observed=527.55
chain_sequence="SPDEAYAIAKK [_SPDEAYAIAK(Acetyl (K))K_]" parameter="collision cross section" endpoint_unit=Å² observed=447.3
chain_sequence="DYSAPVNFISAGLKK [_DYSAPVNFISAGLK(Acetyl (K))K_]" parameter="collision cross section" endpoint_unit=Å² observed=518.95
chain_sequence="SPSDSGYSYETIGKTTK [_SPSDSGYSYETIGK(Acetyl (K))TTK_]" parameter="collision cross section" endpoint_unit=Å² observed=524.63
chain_sequence="IVEKYGYTHLSAGELLR [_IVEK(Acetyl (K))YGYTHLSAGELLR_]" parameter="collision cross section" endpoint_unit=Å² observed=562.4
chain_sequence="LQAAYAGDKADDIQK [_LQAAYAGDK(Acetyl (K))ADDIQK_]" parameter="collision cross section" endpoint_unit=Å² observed=488.96
chain_sequence="DTGEKLTVAENEAETK [_DTGEK(Acetyl (K))LTVAENEAETK_]" parameter="collision cross section" endpoint_unit=Å² observed=512.62
chain_sequence="FSAYIKNSNPALNDNLEK [_FSAYIK(Acetyl (K))NSNPALNDNLEK_]" parameter="collision cross section" endpoint_unit=Å² observed=541.74
chain_sequence="PANEKATDDYHYEK [_PANEK(Acetyl (K))ATDDYHYEK_]" parameter="collision cross section" endpoint_unit=Å² observed=502.57
chain_sequence="PSVGSQSNQAGQGKR [_PSVGSQSNQAGQGK(Acetyl (K))R_]" parameter="collision cross section" endpoint_unit=Å² observed=465.77
chain_sequence="GADFLVTEVENGGSLGSKK [_GADFLVTEVENGGSLGSK(Acetyl (K))K_]" parameter="collision cross section" endpoint_unit=Å² observed=541.97
chain_sequence="IQQELQTAKK [_IQQELQTAK(Acetyl (K))K_]" parameter="collision cross section" endpoint_unit=Å² observed=435.9
chain_sequence="DSSPTTNSKLSALQR [_DSSPTTNSK(Acetyl (K))LSALQR_]" parameter="collision cross section" endpoint_unit=Å² observed=495.74
chain_sequence="VSPASSVDSNIPSSQGYKK [_VSPASSVDSNIPSSQGYK(Acetyl (K))K_]" parameter="collision cross section" endpoint_unit=Å² observed=553.13
chain_sequence="LGNDFHTNKR [_LGNDFHTNK(Acetyl (K))R_]" parameter="collision cross section" endpoint_unit=Å² observed=444.24
chain_sequence="VDVEVPDVSLEGPEGKLK [_VDVEVPDVSLEGPEGK(Acetyl (K))LK_]" parameter="collision cross section" endpoint_unit=Å² observed=555.98
chain_sequence="FGTINIVHPKLGSYTK [_FGTINIVHPK(Acetyl (K))LGSYTK_]" parameter="collision cross section" endpoint_unit=Å² observed=551.28
chain_sequence="VQGGALEDSQLVAGVAFKK [_VQGGALEDSQLVAGVAFK(Acetyl (K))K_]" parameter="collision cross section" endpoint_unit=Å² observed=554.41
